testTarget: Human α2δ-1 subunit of Cav2.2 calcium channel (Homo sapiens, UniProt P54289)
Sequence (P54289 25-1103): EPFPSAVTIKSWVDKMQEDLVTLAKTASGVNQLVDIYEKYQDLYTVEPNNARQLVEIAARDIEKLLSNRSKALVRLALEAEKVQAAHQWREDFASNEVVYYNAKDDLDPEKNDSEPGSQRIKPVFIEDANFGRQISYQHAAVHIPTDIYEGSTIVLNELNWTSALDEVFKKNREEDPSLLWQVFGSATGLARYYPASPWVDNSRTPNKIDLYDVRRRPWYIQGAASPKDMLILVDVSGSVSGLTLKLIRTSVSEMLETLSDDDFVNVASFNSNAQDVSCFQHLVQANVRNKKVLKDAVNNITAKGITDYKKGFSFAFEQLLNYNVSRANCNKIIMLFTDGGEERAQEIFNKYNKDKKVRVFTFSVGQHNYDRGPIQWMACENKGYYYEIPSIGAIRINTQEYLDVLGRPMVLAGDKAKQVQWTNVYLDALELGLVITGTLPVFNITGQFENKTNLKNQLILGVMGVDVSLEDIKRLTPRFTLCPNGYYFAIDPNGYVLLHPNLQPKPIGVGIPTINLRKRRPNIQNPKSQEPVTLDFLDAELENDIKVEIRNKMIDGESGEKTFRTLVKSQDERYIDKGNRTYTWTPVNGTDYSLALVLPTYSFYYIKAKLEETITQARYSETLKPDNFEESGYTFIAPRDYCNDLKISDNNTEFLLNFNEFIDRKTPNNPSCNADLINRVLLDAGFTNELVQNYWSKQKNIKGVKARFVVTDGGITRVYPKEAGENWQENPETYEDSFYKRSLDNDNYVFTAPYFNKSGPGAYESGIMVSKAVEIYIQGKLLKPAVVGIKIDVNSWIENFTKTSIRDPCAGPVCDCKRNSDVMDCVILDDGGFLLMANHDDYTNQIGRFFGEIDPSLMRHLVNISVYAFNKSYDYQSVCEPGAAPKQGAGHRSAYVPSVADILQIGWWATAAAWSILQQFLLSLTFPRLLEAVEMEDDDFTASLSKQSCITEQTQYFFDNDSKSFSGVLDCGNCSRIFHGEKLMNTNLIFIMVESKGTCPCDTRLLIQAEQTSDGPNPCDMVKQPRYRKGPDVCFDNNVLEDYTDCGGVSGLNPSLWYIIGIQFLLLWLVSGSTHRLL
procedureSummary: biochemical
Assay type: binding
In this section, each of the molecules is paired with its reported Ki.

{"molecule": "CCCC(c1nc2cc(C(=O)NCc3ccccc3)ccc2c(=O)n1CC)N1C[C@@H](C)N[C@@H](C)C1 (stereo partly drawn)", "Ki": "< 500 nM"}
{"molecule": "CCCC(c1nc2ccc(Br)cc2c(=O)n1CCC(=O)O)N1C[C@@H](C)N[C@@H](C)C1 (stereo partly drawn)", "Ki": "500 to 5000 nM"}
{"molecule": "CCCC(c1nc2ccc(CN(C)Cc3ccccc3)cc2c(=O)n1CC)N1C[C@@H](C)N[C@@H](C)C1 (stereo partly drawn)", "Ki": "< 500 nM"}
